Provide the recorded Kd for the entries that follow.
# TESTED_ON: MS2 coat protein, dlFG mutant (Escherichia phage MS2, UniProt P03612, del68-81insG)
# EXPERIMENT_DESCRIPTION: 4 mM Mg2+; no ligand; RNA-MaP array; 100 mM Tris-HCl pH 7.5, 80 mM KCl, 4 mM MgCl2, 0.1 mg/mL BSA, 1 mM DTT, 0.01 mg/mL yeast tRNA, 0.01% Tween-20; protein 1.5 nM to 3 uM; 37 C (Table S3)
# CONDITION_CONTEXT: chain copies: 2; label: tethered by stalled RNA polymerase
// units = µM; emit number, no label

Input line: Given the binder Eterna 7652494 (Same State - Tryptophan B) (ssRNA) RNA: AGUAGACACGCGGCCGCCACUUGAGGAUCACCCAGGUGGUGUGUACUUGAAAACAAGUGCACAUCAAGGACCGGGCGUGUCUACA , what is its reported Kd?
Output line: 0.0127

Input line: Sample Eterna 6429368 (Inverted Exclusion NG 2) (ssRNA) RNA: AUGUCUUAGUAGAAGGGACAUCGGCUGGUAAGCAUCAUCUCCUUCUCACAUGAGGAUCACCCAUGUCAGGAUAUACUAAGAUAC — what was its Kd?
Output line: 0.0128

Input line: # lookup: Kd of Eterna 6424838 (Exclusion NG 2) (ssRNA) RNA: GCCGGUUCCCUAGGAUAUGUACAUGAGGAUCACCCAUGUGCCUCUAGAGCCGGAACAGGGCAUGUACAGAAGGAGGGUCGACCC
Output line: 0.00713
